Protocol text: chemical genetic growth profiling, strain panel (AID 1159580);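 note: tested at 20 µM; growth read once vehicle control cultures reached saturation at 30 °C; lower values mean less growth of the strain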
Assay conditions: S. cerevisiae deletion strains, growth OD, locus YDL134C, strain PPH21
Screen size: about 5,500 compounds; about 2,000 (36%) were called active. About 18% were inconclusive and are not listed. Cut-off read from the data, not from the text of the source: active = normalized growth mostly below about 0.91 (no sharp cut-off); inconclusive = no clear call, values can overlap the other calls; inactive = mostly above about 0.92. Some of the results follow.
Pick one and only one: active, inactive

| Compound string | Label |
| --- | --- |
| c1ccc(-c2csc(-c3cccnc3)n2)cc1 | inactive |
| NNC(=O)c1cnn(-c2ccc(Cl)cc2)c1C(F)(F)F | inactive |

[in] Which outcome was entered for the molecule "COc1cc(C)c2c(=O)cc(-c3ccccc3)oc2c1" in this test?
[out] inactive

[in] Check the results log: what was the call for "CCOC(=O)c1cnn(-c2ccc(F)cc2)c1N" ?
[out] inactive

[in] Name the outcome recorded for "CCCNC(=O)NS(=O)(=O)c1ccc(Cl)cc1" in the assay.
[out] inactive

[in] In this assay, the call recorded for "COc1ccc(-c2cc(=O)c3c(OC)cc(OC)cc3o2)cc1" was what?
[out] inactive

[in] Give the logged outcome of this assay for the following molecule: "COc1cc(OC)c2c(=O)cc(-c3ccccc3)oc2c1"
[out] active
